Test system: HCT-15 colon
Test: NCI-60 one-dose screen, 48 h (100 = growth as untreated, 0 = no growth, -100 = all killed)
Details: 10 µM unless noted
Compounds without any hit were thinned out: in the full panel of roughly 83,000, 20% have a hit.
Each entry below carries its recorded growth.
// units = %; emit number, no label

For orientation, consider the following solved cases.
CCOC(=O)C1OC2(CCCC2)OC1C(=O)OCC (centres undefined); 106
C(=Nc1ccc(-c2ccc(N=Cc3ccccc3)cc2)cc1)c1ccccc1; 106
C=C1C(=O)O[C@H]2[C@H]1CC/C(COC(=O)NCc1[nH]nc3ccccc13)=C\CC[C@@]1(C)O[C@@H]21; 5.35
C/C(=N\Nc1ccc([N+](=O)[O-])cn1)c1ccc(N)cc1; 95.1
COc1ccc(-c2cc(C(=O)Nc3ccc(Br)cc3)nc3[nH]c(=O)sc23)cc1; 37
S=C(Nc1ccc(Cl)cc1)Nc1ccc(Cl)cc1 (tested in a mixture with another compound); 9.22
O=c1oc2ccccc2cc1-c1cc(-c2ccc(-c3cc(-c4cc5ccccc5oc4=O)nc(-c4cc5ccccc5oc4=O)c3)cc2)cc(-c2cc3ccccc3oc2=O)n1; 103
O=C(Nc1ccc([N+](=O)[O-])cc1)c1cc2ccccc2cc1O; 0.0174

Now for a further compound.
Request: Missing value: growth, HCT-15 colon, entry `CN(C)c1ccc(/C=C\c2cccc[n+]2C)cc1` . Fill in?
Result: 104

----------
Tested on: HCT-15 colon
Assay: NCI-60 one-dose screen, 48 h
Details: 10 µM unless noted
This is part of a sample that, as a whole, favours compounds with a hit. Of some 83,000 tested, about 20% had one in any assay. Active and inactive are the calls of the source. How the source made its calls: active means growth percent below 10; inactive means the rest.
Select the matching outcome among active, inactive

O=C1CCCN1C(O)CCN(Cc1ccccc1)Cc1ccc(Cl)cc1 (stereo unspecified); inactive
C=C1C(=O)O[C@H]2[C@H]1CC/C(COC(=O)N[C@@H](Cc1c[nH]c3ccccc13)C(=O)OC)=C\CC[C@@]1(C)O[C@@H]21; active

Request: Hi, do you know how `CCOC(=O)Nc1ccc2nc(N3CCCCCC3)sc2c1` came out in this test?
Result: inactive

Request: Query: recorded result category for `O=C(Nc1cccc(-n2ccc3c(NC(=O)c4ccccc4)nccc32)c1)c1ccc(N2CCOCC2)c(C(F)(F)F)c1` in this test
Result: inactive

Request: Returns: the outcome recorded for O=C1OCC2=C1C(c1ccccc1)c1cc3c(cc1N2CCO)CCC3 (stereo unspecified) in this assay.
Result: inactive

Request: Called result for `N=c1nc(N2CCCCC2)cc(N)n1O`
Result: inactive

Request: Called result for Oc1c(C(Nc2cccc3ccccc23)c2ccccc2)ccc2cccnc12 (stereo unspecified)
Result: inactive

----------
Test system: LOX IMVI melanoma
Test: NCI-60 one-dose screen, 48 h
Settings: 10 µM unless noted
This is part of a sample that, as a whole, favours compounds with a hit. Of some 83,000 tested, about 20% had one in any assay. Calls of active or inactive are those of the source. The calls were made as follows: active = growth percent below 10; inactive = the rest.
Could you please pick one outcome from this set? YES for active, NO for inactive

CC(C)(CCc1ccccn1)C(=O)CCCc1ccccn1; NO
CCc1onc(-c2ccc(OC)cc2)c1-c1ccccc1OCCN(CC)CC; NO
CC1CCCN(CCCCOc2ccc(-c3ccc(C#N)cc3)cc2)C1 (stereo unspecified); NO
O=C(CCl)Nc1cc(O)c2c(c1)C(=O)c1cccc(O)c1C2=O; YES
O=C(NO)c1ccc(CNc2cccc3nc(C4CC4)n(-c4ccccc4)c(=O)c23)cc1; YES
O=C(CCCCCCN1CC(=O)N2[C@@H](c3ccc(Cl)c(Cl)c3)c3[nH]c4ccccc4c3C[C@H]2C1=O)NO; YES
O=C1OC(/C=C/c2ccccc2)=NC/1=C/c1ccccc1[N+](=O)[O-]; NO
COc1ccc2nc3ccccc3c(NCc3ccc(C)cc3)c2c1; YES

// switching to the query molecule
Request: // param item: CC(=O)OC[C@H]1O[C@@H](n2c(=O)cc(N)[nH]c2=O)C(OC(C)=O)[C@@H]1OC(C)=O (stereo partly specified) ; yields the recorded call
Result: NO
